measurement notes: solvent given as SMILES
test parameters: in CCOC(C)=O
Reported emission maximum values are given for each entry in this list.
Unit nm implied. Number only.

Here is how some compounds turned out for emission maximum.
> print(dat)
                                     smiles           measure  measurement.unit  numeric.value
1                CN(C)c1ccc(/C=C/C(=O)O)cc1  emission maximum                nm            421
2           CCC/N=C/c1cc2ccc(N(C)C)cc2cc1OC  emission maximum                nm            441
3  O=c1c2ccccc2n2c3ccccc3c(=O)c3cc(-c4ccccc4)cc1c32  emission maximum                nm            464

Exercise: Report measured emission maximum; entry is COc1ccc2c(=O)c3c([nH]c2c1)-c1cc(Cl)ccc1NC3(C)C
Key: 497

Exercise: Report measured emission maximum; entry is O=Cc1ccc(C2=C3C=c4c(oc5ccccc45)=[N+]3[B-](F)(F)n3c2cc2c4ccccc4oc23)cc1
Key: 610

Exercise: Report measured emission maximum; entry is Cn1c(=O)c(/N=N/c2ccc(Nc3ccc([N+](=O)[O-])cc3S(=O)(=O)O)cc2)c(O)c2ccccc21
Key: 610

---

measurement notes: solvent given as SMILES
test parameters: in CS(C)=O
Rule for this label: Condition met means emission maximum is less than 500 nm; Condition not met means emission maximum is at least 500 nm.

Worked set:
> print(dat)
                                   compound   class.assignment
1  CC(=O)O[B-]1(OC(C)=O)OC(/C=C/c2cccc3ccccc23)=CC(/C=C/c2cccc3ccccc23)=[O+]1  Condition not met
2  CN(C)c1ccc(-c2nc(-c3ccc(N(C)C)cc3)c3ccccc3n2)cc1  Condition not met
3  O=c1c2cc(S(=O)(=O)Cl)ccc2[nH]c2ccc(S(=O)(=O)Cl)cc12      Condition met
4  CCOc1cc2c(cc1/C=C/C(=C(C#N)C#N)c1ccccc1)c1ccccc1n2CC  Condition not met
5  CC(=O)c1ccc(-c2nc3ccc(N(C)C)c(Br)c3s2)cc1  Condition not met

Exercise: Just wondering, is emission maximum of O=Cc1cc(N2CCCCC2)c2ccc3c(N4CCCCC4)cc(N4CCCCC4)c4ccc1c2c43 below 500 nm?
Key: Condition not met

Exercise: Just wondering, is emission maximum of CN(C)c1ccc(/C=C/c2cccnn2)cc1 below 500 nm?
Key: Condition not met

Exercise: Just wondering, is emission maximum of Cc1ccc(C2C(C#N)=C(N)n3c(=O)c4ccccc4c(=O)n32)cc1 (stereo not drawn) below 500 nm?
Key: Condition met

Exercise: Just wondering, is emission maximum of COc1ccc(-c2cc(/C=C/c3ccc(N(c4ccccc4)c4ccccc4)cc3)c(C#N)c(N3CCCCC3)c2)cc1 below 500 nm?
Key: Condition not met

Exercise: Just wondering, is emission maximum of C[N+]1=C(/C=C/C=C2/N(CCC[N+](C)(C)C)c3ccccc3C2(C)C)C(C)(C)c2ccccc21 below 500 nm?
Key: Condition not met

Exercise: Just wondering, is emission maximum of O=C(O)COc1cccc(-c2c3nc(cc4ccc([nH]4)c(-c4cccc(OCC(=O)O)c4)c4nc(cc5ccc2[nH]5)CC4)CC3)c1 below 500 nm?
Key: Condition not met

Exercise: Just wondering, is emission maximum of Cc1cc(=O)oc2cc3c4ccccc4c4ccccc4c3cc12 below 500 nm?
Key: Condition met

Exercise: Just wondering, is emission maximum of CCCCN1/C(=C/C=C/C2=[N+](C)c3ccccc3C2(C)C)C(C)(C)c2ccccc21 below 500 nm?
Key: Condition not met

Ref: the Deep4Chem optical property database
